# System: human colon carcinoma cell line HCT116
# experimental_protocol: MTS cytotoxicity assay, HCT116
# Assay type: cell-based
# applied_conditions: HCT-116, HCT116, 72 hours, read-out: IC50, inhibition of cell proliferation
parameter_measured: pIC50
Please keep in mind that pIC50 is minus log10 of the molar concentration; only the number is needed.

Supply reported pIC50 belonging to this molecule: C=CC(C)(C)c1nc[nH]c1/C=C1\NC(=O)C(Cc2ccccc2)NC1=O (stereo not shown) [halimide]
6.00
